Recorded values, source patent US20070083037A1.

Molecular target: T1, rhesus monkey NPY Y4 receptor protein of SEQ ID NO: 2 (encoded by the nucleotide sequence of SEQ ID NO: 1) (rhesus monkey, UniProt P0DQD5 1-375 (human entry))
T1 construct: 375 residues; also called rhesus monkey Y4 receptor
T1 chain: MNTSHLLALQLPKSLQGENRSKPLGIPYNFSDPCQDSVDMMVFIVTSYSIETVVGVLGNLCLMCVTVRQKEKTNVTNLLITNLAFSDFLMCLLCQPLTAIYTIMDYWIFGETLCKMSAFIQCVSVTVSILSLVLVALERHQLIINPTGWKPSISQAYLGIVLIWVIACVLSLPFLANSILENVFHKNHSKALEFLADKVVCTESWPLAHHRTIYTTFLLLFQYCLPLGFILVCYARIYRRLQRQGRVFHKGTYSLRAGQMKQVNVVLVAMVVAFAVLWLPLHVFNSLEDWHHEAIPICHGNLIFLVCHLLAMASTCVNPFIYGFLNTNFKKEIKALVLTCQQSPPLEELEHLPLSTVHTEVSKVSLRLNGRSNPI
Experiment: competition against 59 pM [125I]human PP, COS-7 membrane fractions, filter binding
Where no end group is shown, it is not given here.
measured attribute: IC50 (pM)
Provide only the numeric value, understood in pM.

Item under review: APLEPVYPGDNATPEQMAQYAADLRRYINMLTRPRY (peptide, UniProt P01298 30-65, looked up, ends and bridges not checked, mature; also called human PP; PP) [human Pancreatic Polypeptide] . Reported IC50?
240
